assay: First-in-human trial: pharmacokinetics in plasma and urine; format: in vivo; details: human, plasma, oral, 20 mg, Schedule 1, 20 mg, Day 3, N=4; median (range); read-out: AUC24hr
quantity.name: AUC(0-t) (µg·h/mL)
Answers are plain numbers, in µg·h/mL.

Given the compound `COc1cccc2cc(-c3nc([C@H]4CC[C@H](C(=O)O)CC4)n4ncnc(N)c34)[nH]c12` , write its reported AUC(0-t).
5.85

* * *

test: First-in-human trial: pharmacokinetics in plasma and urine; format: in vivo; details: human, plasma, oral, 120 mg, Schedule 1, 120 mg, Day 3, N=13; median (range); read-out: T1/2 (converted)
quantity.name: half-life (h)
Numbers only, in h.

Given the compound COc1cccc2cc(-c3nc([C@H]4CC[C@H](C(=O)O)CC4)n4ncnc(N)c34)[nH]c12 [OSI-027] , write its reported half-life.
12.8
